experimental.target: Hypoxia-inducible factor 1-alpha (Homo sapiens)
Sequence (Q16665 whole entry): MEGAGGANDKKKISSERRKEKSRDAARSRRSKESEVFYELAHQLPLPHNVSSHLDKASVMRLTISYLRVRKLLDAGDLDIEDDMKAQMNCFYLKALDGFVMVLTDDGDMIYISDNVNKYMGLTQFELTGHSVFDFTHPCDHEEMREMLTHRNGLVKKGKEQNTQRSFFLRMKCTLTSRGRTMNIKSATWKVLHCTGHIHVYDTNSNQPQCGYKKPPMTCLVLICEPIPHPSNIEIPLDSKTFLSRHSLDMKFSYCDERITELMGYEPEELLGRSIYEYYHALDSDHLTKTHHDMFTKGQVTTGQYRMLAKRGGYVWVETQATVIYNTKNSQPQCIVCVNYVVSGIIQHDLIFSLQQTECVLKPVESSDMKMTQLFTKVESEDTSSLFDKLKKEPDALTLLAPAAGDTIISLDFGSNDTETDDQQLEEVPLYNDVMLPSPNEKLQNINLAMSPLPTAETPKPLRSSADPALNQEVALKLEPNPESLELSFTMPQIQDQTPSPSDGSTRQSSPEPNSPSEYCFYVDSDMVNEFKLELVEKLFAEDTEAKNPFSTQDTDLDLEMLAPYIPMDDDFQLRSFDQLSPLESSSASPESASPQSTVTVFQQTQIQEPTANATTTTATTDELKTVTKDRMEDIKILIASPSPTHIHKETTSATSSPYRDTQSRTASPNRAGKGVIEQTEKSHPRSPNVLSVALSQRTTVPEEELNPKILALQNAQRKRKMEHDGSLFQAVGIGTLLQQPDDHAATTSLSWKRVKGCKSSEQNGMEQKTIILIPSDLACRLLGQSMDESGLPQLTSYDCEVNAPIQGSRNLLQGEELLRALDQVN
run.description: Inhibition of HIF-1alpha in human HCT116 cells under hypoxia condition by HRE-luciferase reporter gene assay
Format: cell-based, HCT-116
endpoint: IC50 (nM)
API: value field is a number in nM; no unit string.

### Prompt Identify measured IC50 associated with `Cc1ccc(Cn2nc(-c3nc4ccc(-c5ccc(Cl)cc5)cc4[nH]3)cc2C)cc1`
### Response 3

###

run.description: Apparent permeability across human Caco2 cells at 10 uM
Format: ADME, cell-based
measurement.conditions: Caco-2
endpoint: Papp at 10 µM (×10⁻⁶ cm/s)
API: value field is a number in ×10⁻⁶ cm/s; no unit string.

### Prompt Identify measured Papp at 10 µM associated with COCCc1ccc(OCC(O)CNC(C)C)cc1 (stereo unspecified)
### Response 27.2
